EXPERIMENTAL_DETAILS: In vivo kinetics experiment (radioactivity distribution)
Design: species or system Wistar male rat
TEST_PARAMETERS: rat, caudal vein, 30 min after administration
Experimental: Each of Compounds [^18F] 100, [^18F] 200, [^123I] 400, [^18F] 500, and [^123I] 601 to 610 obtained by the methods described in Examples 2, 4, 7, 9, 11, 13, 15, 17, 19, 21, 23, 25, 27, and 29, or [^123I] […] From the thus sacrificed rat, blood and organs (heart, lung, stomach, liver, spleen, small intestine, large intestine, kidney, bladder (including urine), muscle (lower limbs), brain, adrenal gland, testis, fat, femur, or thyroid gland) were excised, and the weights thereof were then measured. […]
Quick reference: Radioactivity distribution Muscle (lower limbs) of the listed items.
MEASURE: Radioactivity distribution Muscle (lower limbs)

MOLECULE	OBSERVED_MEASUREMENT
[123I]c1ccc2nc(-c3cncc(Cn4ccnc4)c3)n(C3CC3)c2c1 [[^123I] 602]	0.15 ± 0.01 % ID/g
Fc1cc2nc(-c3cncc(Cn4ccnc4)c3)n(CC[18F])c2cc1Br [[^18F] 200]	0.14 ± 0.01 % ID/g
Fc1cc2nc(-c3cncc(Cn4ccnc4)c3)n(CC[18F])c2cc1Cl [[^18F] 100]	0.12 ± 0.03 % ID/g
[123I]c1ccc2nc(-c3cncc(Cn4ccnn4)c3)n(C3CC3)c2c1 [[^123I] 603]	0.16 ± 0.02 % ID/g
Fc1cc2nc(-c3cncc(Cn4ccnc4)c3)n(CCC[18F])c2cc1Cl [[^18F] 500]	0.13 ± 0.01 % ID/g
FCCn1c(-c2cncc(Cn3ccnc3)c2)nc2cc(F)c([123I])cc21 [[^123I] 400]	0.15 % ID/g

###

Quick reference: Adrenal gland/small intestine ratio of radioactivity accumulation of the listed items.
EXPERIMENTAL_DETAILS: In vivo kinetics experiment (radioactivity distribution)
Design: species or system Wistar male rat
TEST_PARAMETERS: rat, caudal vein, 10 min after administration
MEASURE: Adrenal gland/small intestine ratio of radioactivity accumulation

COMPOUND	OBSERVED_MEASUREMENT
Fc1cc2nc(-c3cncc(Cn4ccnc4)c3)n(CCC[18F])c2cc1Cl [[^18F] 500]	13.90 ± 1.21
Fc1cc2nc(-c3cncc(Cn4ccnc4)c3)n(CC[18F])c2cc1Cl [[^18F] 100]	9.89 ± 2.73
Fc1cc2nc(-c3cncc(Cn4ccnc4)c3)n(CC[18F])c2cc1Br [[^18F] 200]	13.32 ± 3.08
[123I]c1ccc2nc(-c3cncc(Cn4ccnn4)c3)n(C3CC3)c2c1 [[^123I] 603]	3.44 ± 1.04
[123I]c1ccc2nc(-c3cncc(Cn4ccnc4)c3)n(C3CC3)c2c1 [[^123I] 602]	6.95 ± 1.48
FCCn1c(-c2cncc(Cn3ccnc3)c2)nc2cc(F)c([123I])cc21 [[^123I] 400]	6.95

###

EXPERIMENTAL_DETAILS: In vivo kinetics experiment (radioactivity distribution)
Set-up: species or system Wistar male rat
TEST_PARAMETERS: 60 min after administration; rat i.v.; mean ± SD
Quick reference: Radioactivity distribution Small intestine of the listed items.
MEASURE: Radioactivity distribution Small intestine

COMPOUND	OBSERVED_MEASUREMENT
COc1cc([123I])cc2c1nc(-c1cncc(Cn3ccnc3)c1)n2C1CC1 [[^123I] 609]	7.17 ± 0.45 % ID/g
COC(=O)c1cncn1[C@H](C)c1ccc(I)cc1 [[^123I] IMTO, (R)-[^123I]iodometomidate, reference compound]	0.79 ± 0.11 % ID/g
FCCn1c(-c2cncc(Cn3ccnc3)c2)nc2ccc([123I])cc21 [[^123I] 604]	3.98 ± 1.32 % ID/g

###

EXPERIMENTAL_DETAILS: In vivo kinetics experiment (radioactivity distribution)
Set-up: species or system Wistar male rat
TEST_PARAMETERS: 10 min after administration; rat i.v.; mean ± SD
MEASURE: Radioactivity distribution Small intestine (% ID/g)

COMPOUND	MEASUREMENT_UNIT	OBSERVED_MEASUREMENT
COC(=O)c1cncn1[C@H](C)c1ccc(I)cc1 [[^123I] IMTO, (R)-[^123I]iodometomidate, reference compound]	% ID/g	0.62
CC(C)n1c(-c2cncc(Cn3ccnc3)c2)nc2ccc([123I])cc21 [[^123I] 606]	% ID/g	1.35
Fc1cc2nc(-c3cncc(Cn4ccnc4)c3)n(Cc3ccc([123I])cc3)c2cc1Cl [[^123I] 605]	% ID/g	2.46

###

EXPERIMENTAL_DETAILS: In vivo kinetics experiment (radioactivity distribution)
Parameters: species or system Wistar male rat
TEST_PARAMETERS: rat, caudal vein, 60 min after administration
Criterion: Radioactivity distribution Lung strictly under 0.6 % ID/g. Met: Yes. Not met: No.

MOLECULE	ANSWER_LABEL
Fc1cc2nc(-c3cncc(Cn4ccnc4)c3)n(CC[18F])c2cc1Cl [[^18F] 100]	Yes
Fc1cc2nc(-c3cncc(Cn4ccnc4)c3)n(CC[18F])c2cc1Br [[^18F] 200]	Yes
[123I]c1ccc2nc(-c3cncc(Cn4ccnn4)c3)n(C3CC3)c2c1 [[^123I] 603]	No
Fc1cc2nc(-c3cncc(Cn4ccnc4)c3)n(CCC[18F])c2cc1Cl [[^18F] 500]	Yes

###

EXPERIMENTAL_DETAILS: In vivo kinetics experiment (radioactivity distribution)
Set-up: species or system Wistar male rat
TEST_PARAMETERS: 10 min after administration; rat i.v.; mean ± SD
MEASURE: Adrenal gland/blood ratio of radioactivity accumulation

MOLECULE	OBSERVED_MEASUREMENT
Fc1cc2nc(-c3cncc(Cn4ccnc4)c3)n(Cc3ccc([123I])cc3)c2cc1Cl [[^123I] 605]	39.83
CCn1c(-c2cncc(Cn3ccnc3)c2)nc2ccc([123I])cc21 [[^123I] 608]	75.29
CC(C)n1c(-c2cncc(Cn3ccnc3)c2)nc2ccc([123I])cc21 [[^123I] 606]	85.09
COC(=O)c1cncn1[C@H](C)c1ccc(I)cc1 [[^123I] IMTO, (R)-[^123I]iodometomidate, reference compound]	15.93
COc1cc([123I])cc2c1nc(-c1cncc(Cn3ccnc3)c1)n2C1CC1 [[^123I] 609]	70.18
FCCn1c(-c2cncc(Cn3cncc3[123I])c2)nc2cc(F)c(Cl)cc21 [[^123I] 610]	27.61
FCCn1c(-c2cncc(Cn3ccnc3)c2)nc2ccc([123I])cc21 [[^123I] 604]	75.41
Cn1c(-c2cncc(Cn3ccnc3)c2)nc2ccc([123I])cc21 [[^123I] 607]	64.15

###

EXPERIMENTAL_DETAILS: In vivo kinetics experiment (radioactivity distribution)
Parameters: species or system Wistar male rat
TEST_PARAMETERS: 30 min after administration; rat i.v.; mean ± SD
Quick reference: Radioactivity distribution Muscle (lower limbs) of the listed items.
MEASURE: Radioactivity distribution Muscle (lower limbs) (% ID/g)

COMPOUND	OBSERVED_MEASUREMENT
CCn1c(-c2cncc(Cn3ccnc3)c2)nc2ccc([123I])cc21 [[^123I] 608]	0.17
FCCn1c(-c2cncc(Cn3cncc3[123I])c2)nc2cc(F)c(Cl)cc21 [[^123I] 610]	0.17
COc1cc([123I])cc2c1nc(-c1cncc(Cn3ccnc3)c1)n2C1CC1 [[^123I] 609]	0.17
Fc1cc2nc(-c3cncc(Cn4ccnc4)c3)n(Cc3ccc([123I])cc3)c2cc1Cl [[^123I] 605]	0.22
FCCn1c(-c2cncc(Cn3ccnc3)c2)nc2ccc([123I])cc21 [[^123I] 604]	0.16
CC(C)n1c(-c2cncc(Cn3ccnc3)c2)nc2ccc([123I])cc21 [[^123I] 606]	0.16
COC(=O)c1cncn1[C@H](C)c1ccc(I)cc1 [[^123I] IMTO, (R)-[^123I]iodometomidate, reference compound]	0.18
Cn1c(-c2cncc(Cn3ccnc3)c2)nc2ccc([123I])cc21 [[^123I] 607]	0.13

###

EXPERIMENTAL_DETAILS: In vivo kinetics experiment (radioactivity distribution)
Parameters: species or system Wistar male rat
TEST_PARAMETERS: 60 min after administration; rat i.v.; mean ± SD
Label scheme for Radioactivity distribution Remaining whole body: lower than 0.3 % ID/g is 0, 0.3 % ID/g and above is 1.

COMPOUND	ANSWER_LABEL
FCCn1c(-c2cncc(Cn3cncc3[123I])c2)nc2cc(F)c(Cl)cc21 [[^123I] 610]	1
CCn1c(-c2cncc(Cn3ccnc3)c2)nc2ccc([123I])cc21 [[^123I] 608]	0
COC(=O)c1cncn1[C@H](C)c1ccc(I)cc1 [[^123I] IMTO, (R)-[^123I]iodometomidate, reference compound]	1
Fc1cc2nc(-c3cncc(Cn4ccnc4)c3)n(Cc3ccc([123I])cc3)c2cc1Cl [[^123I] 605]	0
CC(C)n1c(-c2cncc(Cn3ccnc3)c2)nc2ccc([123I])cc21 [[^123I] 606]	0
FCCn1c(-c2cncc(Cn3ccnc3)c2)nc2ccc([123I])cc21 [[^123I] 604]	0
COc1cc([123I])cc2c1nc(-c1cncc(Cn3ccnc3)c1)n2C1CC1 [[^123I] 609]	0
Cn1c(-c2cncc(Cn3ccnc3)c2)nc2ccc([123I])cc21 [[^123I] 607]	0
